Molecular target: Histone deacetylase 3 (Homo sapiens)
Experiment: Inhibition of recombinant HDAC3 (unknown origin) at 250 nM incubated for 15 mins before substrate addition and measured after 30 to 45 mins by HDAC-Glo substrate
Active and inactive are the calls of the source. The calls are words filed in the database; no cut-off is given here.
Choose the fitting class; nothing outside yes (active), no (inactive) is accepted.

These recorded examples may help you get a feel for the data.
> print(dat)
                               input.smiles  answer.label
1  CCCCCCCC(=O)SCC/C=C/[C@@H]1CC(=O)NCc2cccc(n2)CN(Cc2ccc(Cl)cc2)CC(=O)N[C@@H](C(C)C)C(=O)O1            no
2  CCCCCCCC(=O)SCC/C=C/[C@@H]1CC(=O)NCc2cccc(n2)CN(Cc2ccccc2)CC(=O)N[C@@H](C(C)C)C(=O)O1            no
3  CCCCCCCC(=O)SCC/C=C/[C@@H]1CC(=O)NCc2cccc(n2)CN(Cc2ccc(OC)cc2)CC(=O)N[C@@H](C(C)C)C(=O)O1            no

From here, focus on the item given below.
Short answer needed: outcome of this test for `CCCCCCCC(=O)SCC/C=C/[C@@H]1CC(=O)NCc2cccc(n2)-c2cccc(n2)C(=O)N[C@@H](C(C)C)C(=O)O1` ? yes

---

Molecular target: Histone deacetylase 1 (Homo sapiens, UniProt Q13547)
Sequence (Q13547 whole entry): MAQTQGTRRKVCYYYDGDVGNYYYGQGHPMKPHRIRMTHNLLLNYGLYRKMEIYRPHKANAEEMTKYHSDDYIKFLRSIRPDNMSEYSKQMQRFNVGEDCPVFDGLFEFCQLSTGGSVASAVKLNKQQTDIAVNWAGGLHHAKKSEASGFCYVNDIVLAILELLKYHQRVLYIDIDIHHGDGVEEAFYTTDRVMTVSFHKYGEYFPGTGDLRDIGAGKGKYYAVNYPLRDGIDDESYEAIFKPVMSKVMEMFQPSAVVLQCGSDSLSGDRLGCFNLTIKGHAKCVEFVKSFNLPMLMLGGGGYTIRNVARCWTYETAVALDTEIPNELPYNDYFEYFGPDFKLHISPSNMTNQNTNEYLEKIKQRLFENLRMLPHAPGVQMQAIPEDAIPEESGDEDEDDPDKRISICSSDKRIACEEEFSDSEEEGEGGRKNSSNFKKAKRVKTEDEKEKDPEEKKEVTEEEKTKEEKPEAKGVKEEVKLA
Assay: Inhibition of recombinant HDAC1 (unknown origin) at 250 nM incubated for 15 mins before substrate addition and measured after 30 to 45 mins by HDAC-Glo substrate
Active and inactive are the calls of the source. The rule behind the calls is not given here.
Hi! Could you answer with just one of these? active, inactive

Lab log entry: `CCCCCCCC(=O)SCC/C=C/[C@@H]1CC(=O)NCc2cccc(n2)CN(Cc2ccccc2)CC(=O)N[C@@H](C(C)C)C(=O)O1` — outcome as called in the assay? inactive

Hi, do you know how `CCCCCCCC(=O)SCC/C=C/[C@@H]1CC(=O)NCc2cccc(n2)CN(Cc2ccc(Cl)cc2)CC(=O)N[C@@H](C(C)C)C(=O)O1` came out in this test? inactive

# lookup: test call for `CCCCCCCC(=O)SCC/C=C/[C@@H]1CC(=O)NCc2cccc(n2)-c2cccc(n2)C(=O)N[C@@H](C(C)C)C(=O)O1` active

What did this assay record as the result for `CCCCCCCC(=O)SCC/C=C/[C@@H]1CC(=O)NCc2cccc(n2)CN(Cc2ccc(OC)cc2)CC(=O)N[C@@H](C(C)C)C(=O)O1` ? inactive

---

Molecular target: Histone deacetylase 3 (Homo sapiens, UniProt O15379)
Sequence (O15379 whole entry): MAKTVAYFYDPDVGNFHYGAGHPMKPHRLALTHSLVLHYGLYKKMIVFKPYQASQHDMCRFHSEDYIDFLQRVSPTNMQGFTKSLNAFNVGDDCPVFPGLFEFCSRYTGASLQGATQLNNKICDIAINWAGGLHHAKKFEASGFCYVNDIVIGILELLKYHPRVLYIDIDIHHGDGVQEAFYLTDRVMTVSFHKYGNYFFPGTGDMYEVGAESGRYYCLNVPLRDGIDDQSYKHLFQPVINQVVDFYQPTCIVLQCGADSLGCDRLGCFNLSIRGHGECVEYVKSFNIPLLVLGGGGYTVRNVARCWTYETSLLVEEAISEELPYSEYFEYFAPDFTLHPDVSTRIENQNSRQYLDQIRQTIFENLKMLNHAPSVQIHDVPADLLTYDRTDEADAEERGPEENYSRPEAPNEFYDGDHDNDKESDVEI
Assay: Inhibition of recombinant HDAC3 (unknown origin)incubated for 15 mins before substrate addition and measured after 30 to 45 mins by HDAC-Glo substrate
measured-endpoint: pIC50
Recall that pIC50 is obtained by taking minus log10 of the concentration measured in molar.

# pIC50 (compound: `CCCCCCCC(=O)SCC/C=C/[C@@H]1CC(=O)NCc2cccc(n2)-c2cccc(n2)C(=O)N[C@@H](C(C)C)C(=O)O1` ) is 7.57

---

Molecular target: Histone deacetylase 2 (Homo sapiens)
Sequence (Q92769 whole entry): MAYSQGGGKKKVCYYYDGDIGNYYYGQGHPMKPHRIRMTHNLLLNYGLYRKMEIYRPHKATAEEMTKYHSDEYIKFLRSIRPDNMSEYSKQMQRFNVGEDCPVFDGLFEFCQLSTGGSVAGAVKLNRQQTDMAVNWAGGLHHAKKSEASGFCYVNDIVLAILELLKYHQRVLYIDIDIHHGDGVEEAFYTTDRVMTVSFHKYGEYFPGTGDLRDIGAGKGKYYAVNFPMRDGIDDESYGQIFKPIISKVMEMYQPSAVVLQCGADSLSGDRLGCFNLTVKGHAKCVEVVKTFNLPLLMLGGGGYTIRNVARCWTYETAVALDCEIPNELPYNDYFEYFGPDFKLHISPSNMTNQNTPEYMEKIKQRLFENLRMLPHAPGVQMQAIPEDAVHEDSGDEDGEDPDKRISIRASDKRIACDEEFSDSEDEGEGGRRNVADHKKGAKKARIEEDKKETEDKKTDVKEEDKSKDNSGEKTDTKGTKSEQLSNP
Test: Inhibition of recombinant HDAC2 (unknown origin) at 250 nM incubated for 15 mins before substrate addition and measured after 30 to 45 mins by HDAC-Glo substrate
The source made the active and inactive calls. The calls are words filed in the database; no cut-off is given here.
measured-endpoint: inhibition

> print(dat)
                               input.smiles                     system.under.test  experimental.value
1  CCCCCCCC(=O)SCC/C=C/[C@@H]1CC(=O)NCc2cccc(n2)CN(Cc2ccc(OC)cc2)CC(=O)N[C@@H](C(C)C)C(=O)O1  Histone deacetylase 2 (Homo sapiens)            inactive
2  CCCCCCCC(=O)SCC/C=C/[C@@H]1CC(=O)NCc2cccc(n2)CN(Cc2ccc(Cl)cc2)CC(=O)N[C@@H](C(C)C)C(=O)O1  Histone deacetylase 2 (Homo sapiens)            inactive
3  CCCCCCCC(=O)SCC/C=C/[C@@H]1CC(=O)NCc2cccc(n2)CN(Cc2ccccc2)CC(=O)N[C@@H](C(C)C)C(=O)O1  Histone deacetylase 2 (Homo sapiens)            inactive
